Test system: pMLC2
MEASUREMENT DESCRIPTION: Cellular PD assay, pMLC2 in PASMC (western blot)
Type: cell-based
EXPERIMENTAL PARAMETERS: Human Pulmonary Artery Smooth Muscle Cells, 30 min incubation
OBSERVED PROPERTY: IC50 (nM)
Write the value in nM as a bare number.

Ask | Value lookup for IC50; key = NC[C@@H](C(=O)Nc1ccc2cnccc2c1)c1ccc(CO)cc1
Reply | 14

* * *

MEASURED TARGET: Recombinant ROCK1 (Homo sapiens (Human), UniProt Q13464)
Sequence (Q13464 whole entry): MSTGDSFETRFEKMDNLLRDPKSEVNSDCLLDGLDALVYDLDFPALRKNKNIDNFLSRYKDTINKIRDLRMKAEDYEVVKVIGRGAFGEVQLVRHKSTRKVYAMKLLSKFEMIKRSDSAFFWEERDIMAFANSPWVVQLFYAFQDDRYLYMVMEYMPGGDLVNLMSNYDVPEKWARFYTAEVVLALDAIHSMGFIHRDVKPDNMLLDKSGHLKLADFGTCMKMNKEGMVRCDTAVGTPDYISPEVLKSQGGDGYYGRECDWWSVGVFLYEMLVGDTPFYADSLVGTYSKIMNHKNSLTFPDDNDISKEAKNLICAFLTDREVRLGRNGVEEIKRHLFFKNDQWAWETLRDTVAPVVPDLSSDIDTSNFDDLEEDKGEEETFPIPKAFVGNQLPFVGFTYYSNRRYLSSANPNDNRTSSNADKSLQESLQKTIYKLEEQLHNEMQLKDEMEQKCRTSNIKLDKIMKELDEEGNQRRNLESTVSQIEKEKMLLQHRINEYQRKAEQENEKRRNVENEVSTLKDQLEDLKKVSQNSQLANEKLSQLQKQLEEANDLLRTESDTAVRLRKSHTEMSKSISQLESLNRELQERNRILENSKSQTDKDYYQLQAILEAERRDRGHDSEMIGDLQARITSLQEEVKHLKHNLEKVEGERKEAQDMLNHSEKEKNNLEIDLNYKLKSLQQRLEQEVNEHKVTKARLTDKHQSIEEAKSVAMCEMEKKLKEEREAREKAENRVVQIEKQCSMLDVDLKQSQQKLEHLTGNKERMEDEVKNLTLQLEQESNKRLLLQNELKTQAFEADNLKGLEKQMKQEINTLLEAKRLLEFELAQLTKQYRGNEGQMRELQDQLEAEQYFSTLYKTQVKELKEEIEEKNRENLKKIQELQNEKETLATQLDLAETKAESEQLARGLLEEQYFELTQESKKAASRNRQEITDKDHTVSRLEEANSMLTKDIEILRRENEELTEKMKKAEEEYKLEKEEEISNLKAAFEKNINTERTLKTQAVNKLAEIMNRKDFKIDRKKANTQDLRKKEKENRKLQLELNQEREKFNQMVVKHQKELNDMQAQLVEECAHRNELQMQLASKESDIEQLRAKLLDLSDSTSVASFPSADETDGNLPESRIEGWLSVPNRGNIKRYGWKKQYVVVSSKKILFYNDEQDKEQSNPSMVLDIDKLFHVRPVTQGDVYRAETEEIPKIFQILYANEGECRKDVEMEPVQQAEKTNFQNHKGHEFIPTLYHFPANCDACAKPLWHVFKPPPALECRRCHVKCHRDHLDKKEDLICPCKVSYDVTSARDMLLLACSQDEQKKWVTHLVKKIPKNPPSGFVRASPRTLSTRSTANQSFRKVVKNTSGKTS
MEASUREMENT DESCRIPTION: Lance Ultra Kinase Assay, ROCK1 inhibition
Format: biochemical
EXPERIMENTAL PARAMETERS: ATP at Km, 30 min pre-incubation, 1 h reaction
OBSERVED PROPERTY: pIC50
Friendly reminder that pIC50 comes from taking -log10 of the concentration in mol/L.

Below: 5 compounds and their reported pIC50.
Ask | Value lookup for pIC50; key = CC(N)(C(=O)Nc1cccc2c(-c3cn[nH]c3)c[nH]c12)c1ccccc1 (racemic) [Example 107]
Reply | 8.22

Ask | Value lookup for pIC50; key = NCC(C(=O)Nc1cccc2c(-c3cn[nH]c3)c[nH]c12)C1CCCC1 (racemic) [Example 95]
Reply | 8.43

Ask | Value lookup for pIC50; key = N#Cc1cccc([C@@H](N)C(=O)Nc2cccc3c(-c4cn[nH]c4)c[nH]c23)c1 (single isomer, unassigned) [Example 68]
Reply | 8.40

Ask | Value lookup for pIC50; key = COc1ccc(C(CN)NC(=O)c2cccc3c(-c4cn[nH]c4)c[nH]c23)cc1 (single isomer, unassigned) [Example 144]
Reply | 7.22

Ask | Value lookup for pIC50; key = NCC(C(=O)Nc1cccc2c(-c3cn[nH]c3)c[nH]c12)C1CCCCC1 (single isomer, unassigned) [Example 24]
Reply | 8.40

---
Ask | Value lookup for pIC50; key = NCc1ccc(C(CN)C(=O)Nc2cccc3c(-c4cn[nH]c4)c[nH]c23)cc1 (racemic) [Example 77]
Reply | 7.08

Ask | Value lookup for pIC50; key = N#Cc1ccc(C(CN)C(=O)Nc2cccc3c(-c4cn[nH]c4)c[nH]c23)cc1 (single isomer, unassigned) [Example 59]
Reply | 8.57

Ask | Value lookup for pIC50; key = NCC(C(=O)Nc1cccc2c(-c3cn[nH]c3)c[nH]c12)c1cccnc1 (single isomer, unassigned) [Example 33]
Reply | 7.01

Ask | Value lookup for pIC50; key = CN1CCN(C(C(=O)Nc2cccc3c(-c4cn[nH]c4)c[nH]c23)c2ccccc2)CC1 (racemic) [Example 46]
Reply | 8.40

Ask | Value lookup for pIC50; key = COc1cccc(C(CN)NC(=O)c2cccc3c(-c4cn[nH]c4)c[nH]c23)c1 (single isomer, unassigned) [Example 139]
Reply | 8.26

Ask | Value lookup for pIC50; key = NCC(C(=O)Nc1cccc2c(-c3cn[nH]c3)c[nH]c12)c1cccc(CO)c1 (racemic) [Example 75]
Reply | 6.69

Ask | Value lookup for pIC50; key = NCC(Cc1ccccc1)NC(=O)c1cccc2c(-c3cn[nH]c3)c[nH]c12 (racemic) [Example 147]
Reply | 9.06

Ask | Value lookup for pIC50; key = CN1CCN(C(C(=O)Nc2cccc3c(-c4cn[nH]c4)c[nH]c23)C2CCCCC2)CC1 (racemic) [Example 129]
Reply | 8.77

Ask | Value lookup for pIC50; key = NC[C@@H](NC(=O)c1cncc2c(-c3cn[nH]c3)c[nH]c12)c1ccccc1 [Example 148]
Reply | 7.68

Ask | Value lookup for pIC50; key = NCC(C(=O)Nc1cccc2c(-c3cn[nH]c3)c[nH]c12)c1ccc(O)cc1 (racemic) [Example 79]
Reply | 8.54

Ask | Value lookup for pIC50; key = COc1cncc(C(CN2CCN(C)CC2)C(=O)Nc2cccc3c(-c4cn[nH]c4)c[nH]c23)c1 (single isomer, unassigned) [Example 110]
Reply | 8.18

Ask | Value lookup for pIC50; key = Cc1ccc(C(=O)OCc2ccc(C(CN)C(=O)Nc3cccc4c(-c5cn[nH]c5)c[nH]c34)cc2)c(C)c1 (single isomer, unassigned) [Example 5]
Reply | 8.10

* * *

MEASURED TARGET: Recombinant ROCK1 (Homo sapiens (Human))
MEASUREMENT DESCRIPTION: Lance Ultra Kinase Assay, ROCK1 inhibition
Type: biochemical
EXPERIMENTAL PARAMETERS: ATP at Km, 30 min pre-incubation, 1 h reaction
OBSERVED PROPERTY: pIC50
Friendly reminder that pIC50 comes from taking -log10 of the concentration in mol/L.

Below: 6 molecules and their reported pIC50.
Ask | Value lookup for pIC50; key = Cc1n[nH]cc1-c1c[nH]c2c(NC(=O)[C@H](CN)c3ccccc3)cccc12
Reply | 8.54

Ask | Value lookup for pIC50; key = Cc1n[nH]c(C)c1-c1c[nH]c2c(NC(=O)[C@H](CN)c3ccccc3)cccc12
Reply | 5.92

Ask | Value lookup for pIC50; key = COc1cccc([C@@H](C(=O)Nc2cccc3c(-c4cn[nH]c4)c[nH]c23)C2CCN(C)CC2)c1 (single isomer, unassigned)
Reply | 7.23

Ask | Value lookup for pIC50; key = CN1CCC(C(C(=O)Nc2cccc3c(-c4cn[nH]c4)c[nH]c23)c2ccccc2)CC1 (single isomer, unassigned) [Example 44]
Reply | 6.95

Ask | Value lookup for pIC50; key = CC(=O)NCc1ccc(C(CN)C(=O)Nc2cccc3c(-c4cn[nH]c4)c[nH]c23)cc1 (racemic)
Reply | 8.49

Ask | Value lookup for pIC50; key = CN1CCC(C(C(=O)Nc2cccc3c(-c4cn[nH]c4)c[nH]c23)c2ccccc2)CC1 (racemic) [Example 43]
Reply | 8.89

Now for the molecule whose pIC50 we want.
Ask | Value lookup for pIC50; key = Cc1cccc(C(CN)C(=O)Nc2cccc3c(-c4cn[nH]c4)c[nH]c23)c1 (racemic)
Reply | 9.54

* * *

MEASURED TARGET: Recombinant ROCK2 (Homo sapiens (Human), UniProt O75116)
Sequence (O75116 whole entry): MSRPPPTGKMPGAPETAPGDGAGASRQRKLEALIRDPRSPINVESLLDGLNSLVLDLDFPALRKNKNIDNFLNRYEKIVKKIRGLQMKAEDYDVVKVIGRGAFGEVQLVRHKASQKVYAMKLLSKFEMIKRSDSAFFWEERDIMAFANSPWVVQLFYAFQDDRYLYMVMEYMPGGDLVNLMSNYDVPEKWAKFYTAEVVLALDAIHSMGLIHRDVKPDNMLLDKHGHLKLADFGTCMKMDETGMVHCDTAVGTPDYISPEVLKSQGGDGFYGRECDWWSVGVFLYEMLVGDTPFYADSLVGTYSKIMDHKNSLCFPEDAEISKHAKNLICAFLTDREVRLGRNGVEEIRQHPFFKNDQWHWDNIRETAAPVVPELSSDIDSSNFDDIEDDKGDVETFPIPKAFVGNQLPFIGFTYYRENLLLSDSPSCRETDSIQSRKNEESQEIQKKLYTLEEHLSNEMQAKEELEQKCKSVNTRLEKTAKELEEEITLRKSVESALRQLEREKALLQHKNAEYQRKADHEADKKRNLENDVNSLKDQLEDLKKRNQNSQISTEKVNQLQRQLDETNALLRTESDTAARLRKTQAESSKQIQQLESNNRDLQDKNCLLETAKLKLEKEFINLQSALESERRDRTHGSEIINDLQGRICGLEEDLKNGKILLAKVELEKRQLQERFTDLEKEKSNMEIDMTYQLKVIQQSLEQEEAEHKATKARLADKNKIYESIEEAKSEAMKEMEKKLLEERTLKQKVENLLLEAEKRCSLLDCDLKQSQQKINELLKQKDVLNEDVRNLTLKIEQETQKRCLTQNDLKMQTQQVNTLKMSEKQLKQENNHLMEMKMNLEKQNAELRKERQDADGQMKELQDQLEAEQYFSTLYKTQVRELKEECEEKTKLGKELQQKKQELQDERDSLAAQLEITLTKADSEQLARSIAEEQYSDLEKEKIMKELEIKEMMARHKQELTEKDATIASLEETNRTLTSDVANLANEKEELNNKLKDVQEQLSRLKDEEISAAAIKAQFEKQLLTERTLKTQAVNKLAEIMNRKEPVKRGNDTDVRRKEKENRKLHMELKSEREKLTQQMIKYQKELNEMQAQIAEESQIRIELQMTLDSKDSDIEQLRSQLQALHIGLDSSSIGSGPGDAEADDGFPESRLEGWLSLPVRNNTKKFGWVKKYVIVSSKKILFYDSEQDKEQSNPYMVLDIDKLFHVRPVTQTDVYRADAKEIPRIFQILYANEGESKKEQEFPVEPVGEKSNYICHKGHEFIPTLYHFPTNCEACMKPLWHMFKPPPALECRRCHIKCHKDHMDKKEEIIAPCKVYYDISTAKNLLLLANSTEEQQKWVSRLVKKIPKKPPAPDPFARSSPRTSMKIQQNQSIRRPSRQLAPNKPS
MEASUREMENT DESCRIPTION: Lance Ultra Kinase Assay, ROCK2 inhibition
EXPERIMENTAL PARAMETERS: ATP at Km, 30 min pre-incubation, 1 h reaction
pIC50: −log10 of the molar value.
Give T when the value for pIC50 is at least 9. Give F when it is less.

Ask | Assess whether reported pIC50 for CN1CCC(C(C(=O)Nc2cccc3c(-c4cn[nH]c4)c[nH]c23)c2ccccc2)CC1 (single isomer, unassigned) [Example 44] sits at 9 or higher.
Reply | F

Ask | Assess whether reported pIC50 for NCC(C(=O)Nc1cccc2c(-c3cn[nH]c3)c[nH]c12)C1CCCCC1 (single isomer, unassigned) [Example 23] sits at 9 or higher.
Reply | T

Ask | Assess whether reported pIC50 for Cc1cncc(C(CN)C(=O)Nc2cccc3c(-c4cn[nH]c4)c[nH]c23)c1 (single isomer, unassigned) [Example 63] sits at 9 or higher.
Reply | T

Ask | Assess whether reported pIC50 for CN1CCN(C(C(=O)Nc2cccc3c(-c4cn[nH]c4)c[nH]c23)c2ccccc2)CC1 (racemic) [Example 46] sits at 9 or higher.
Reply | F

Ask | Assess whether reported pIC50 for NCC(C(=O)Nc1cccc2c(-c3cn[nH]c3)c[nH]c12)C1CCCC1 (racemic) [Example 95] sits at 9 or higher.
Reply | F

# evaluate next
Ask | Assess whether reported pIC50 for NC[C@@H](NC(=O)c1cncc2c(-c3cn[nH]c3)c[nH]c12)c1ccccc1 [Example 148] sits at 9 or higher.
Reply | F

* * *

MEASURED TARGET: Recombinant ROCK2 (Homo sapiens (Human))
MEASUREMENT DESCRIPTION: Lance Ultra Kinase Assay, ROCK2 inhibition
EXPERIMENTAL PARAMETERS: ATP at Km, 30 min pre-incubation, 1 h reaction
Collected log10 IC50 values appear next to each entry.
Base-10 log of IC50, unit nM.

Ask | Value lookup for log10 IC50; key = CN1CCC(C(C(=O)Nc2cccc3c(-c4cn[nH]c4)c[nH]c23)c2ccccc2)CC1 (single isomer, unassigned) [Example 45]
Reply | -0.57

Ask | Value lookup for log10 IC50; key = CN1CCN(C(C(=O)Nc2cccc3c(-c4cn[nH]c4)c[nH]c23)C2CCCCC2)CC1 (racemic) [Example 129]
Reply | 0.23

Ask | Value lookup for log10 IC50; key = CNC(=O)OCc1cccc(C(CN)C(=O)Nc2cccc3c(-c4cn[nH]c4)c[nH]c23)c1 (single isomer, unassigned) [Example 51]
Reply | 1.34

Ask | Value lookup for log10 IC50; key = CC(N)(C(=O)Nc1cccc2c(-c3cn[nH]c3)c[nH]c12)c1ccccc1 (racemic) [Example 107]
Reply | 0.57

Ask | Value lookup for log10 IC50; key = COc1cncc(C(CN2CCN(C)CC2)C(=O)Nc2cccc3c(-c4cn[nH]c4)c[nH]c23)c1 (single isomer, unassigned) [Example 110]
Reply | 0.52

Ask | Value lookup for log10 IC50; key = CN1CCC(C(NC(=O)c2cccc3c(-c4cn[nH]c4)c[nH]c23)C2CCCCC2)CC1 (racemic) [Example 143]
Reply | 2.50

---
Ask | Value lookup for log10 IC50; key = COc1cncc(C(CN)C(=O)Nc2cccc3c(-c4cn[nH]c4)c[nH]c23)c1 (racemic) [Example 102]
Reply | -0.25
